Property: IC50; scope: individual compounds
- System: SARS-Cov-2 UK (B.1.1.7)
- EXPERIMENTAL DETAILS: SARS-CoV-2 Virospot reduction assay (Viroclinics), Vero E6 cells
- Type: cell-based
- STATED CONDITIONS: Severe acute respiratory syndrome coronavirus 2, Vero C1008, read-out: IC50

[
  {
    "CHEMICAL SMILES": "CC(C)(C)NC(=O)N(CCCCCCN1C[C@H](O)[C@@H](O)[C@H](O)[C@H]1CO)C1CCCCC1",
    "IC50": "58.5 µg/mL"
  },
  {
    "CHEMICAL SMILES": "CCCC(=O)O[C@H]1CN2CC[C@H](O)[C@@H]2[C@@H](O)[C@@H]1O",
    "IC50": "> 200 µg/mL"
  },
  {
    "CHEMICAL SMILES": "OCC(CO)N[C@H]1C[C@](O)(CO)[C@@H](O)[C@H](O)[C@H]1O",
    "IC50": "> 200 µg/mL"
  }
]

Next compound, please.
Lookup: So what does the record say about IC50 for `CCCCN1C[C@H](O)[C@@H](O)[C@H](O)[C@H]1CO` ?
Found: > 200 µg/mL

###

Property: IC50; scope: individual compounds
- Tested on: SARS-Cov-2 UK (B.1.1.7)
- EXPERIMENTAL DETAILS: SARS-CoV-2 Virospot reduction assay (Viroclinics), Vero E6 cells
- Type: cell-based
- STATED CONDITIONS: Severe acute respiratory syndrome coronavirus 2, Vero C1008, read-out: IC50

[
  {
    "COMPOUND": "[N-]=[N+]=Nc1ccc(NCCCCCCN2C[C@H](O)[C@@H](O)[C@H](O)[C@H]2CO)c([N+](=O)[O-])c1",
    "IC50": "1.7 mg/L"
  }
]

Lookup: So what does the record say about IC50 for `OCCN1C[C@H](O)[C@@H](O)[C@H](O)[C@H]1CO` ?
Found: > 200 mg/L

Lookup: So what does the record say about IC50 for C[C@H]1O[C@H](O[C@H]2[C@H](O)[C@@H](O)[C@@H](O[C@H]3[C@H](O)[C@@H](O)C(O)O[C@@H]3CO)O[C@@H]2CO)[C@H](O)[C@@H](O)[C@@H]1N[C@H]1C=C(CO)[C@@H](O)[C@H](O)[C@H]1O (stereo partly drawn) ?
Found: > 200 mg/L

Source of measurements: patent US20240016786A1
